Would you kindly list ELISA (OD450) for each of these binders?
molecular target: Negative control (amino acid sequence shown in SEQ ID NO: 2 in CN106046152A); experiment: ELISA, negative control well, TG1 supernatant
Numbers only, in OD450.

Worked examples follow.
| binder | experimental-result |
| --- | --- |
| M143 (VHH) VHH: EVQLVESGGGLVQAGGSLRLSCSASEKTFSIKYMGYYRQGPGIERKLVATIDTDGKTWYADSVKGRFTISRENGENEIGLEMNRLKPEDTAMYYCAGETGTYPKPEYWGQGTQVTVSS | 0.0085 |
| M137 (VHH) VHH: QVQLVESGGGLVQAGGSLSLSCAASGSLSSINAMGWYRQLPEMRQLVATMGSDGKTYYADSVKGRFTISRDYAKYTVSLQMNNLRPEDTAIYYCAADRFGAPIHDVDYWGKGTLVTVSV | 0.0087 |
| M182 (VHH) VHH: QVQLVESGGGSVQAGGSLTLSCAASGAVSSINAMGWYRQTPEKVRQLVATMGSGGNTYYAASVKGRFTISRDYAKNTVALQMNHLLPEDTAVYYCAADRFGADIREVDYWGKGTQVTVSS | 0.0075 |
| M197 (VHH) VHH: EVQLVESGGGLVQAGGSLRLSCAASGSHFGLNVVGWYRQAPGKQRELVASIGNSGRTTDYADSVKGRFTISKDNAQNTIYLQMNNLKPEDTAMYRCHLRVSVERGYWGQGTQVTVSS | 0.0074 |
| M050 (VHH) VHH: EVQLQESGGGLVQAGGSLRLSCAASGAVSSINAMGWYRQTPEKVRKLVATMGSGGNTYYADSVKGRFTISRDYAKNTVALQMNNLIPEDTAVYYCAADKFGADIHEVDYWGKGTLVTVSS | 0.0099 |

Take each entry in turn and give its ELISA (OD450).
1. M344 (VHH) VHH: QVQLVESGGGLVQSGGSLRLSCVASGSAFSFDAMGWYRQFSATRRERQLVVATSRDGRTYYADSVKGRFTATRDNSKNSLYLEMNSLKPEDTAIYYCAAGDDPKNYSWGQGTQVTVSS
2. M001 (VHH) VHH: EVQLVESGGGLVQAGGSLRLSCAASGSIFNINAMGWYRQAPGKEWERELVATISSSNSDNTYYKDSVKGRFTISTNTAKNTWYLQMNSLKPEDTAMYYCAAENYDRKDRYWGQGTQVTVSS
3. M005 (VHH) VHH: EVQLVESGGGWVQSGGSLRLACAASGSSFGLNVVGWYRQAPDKQRELVASIGNGGRTTDYADSVKGRFTISSDNAKNTVFLQMNDLKPEDTAVYYCHLRASVTKGYWGQGTQVTVSS
4. M044 (VHH) VHH: QVQVVESGGGFVQAGGSLRLSCAASTPIISIAYMGWYRQISEKERQLVATINSGGKTYYADSVKGRFTISRDNAKNTLYLQMNMLKPEDTGMYYCAASNKDYNDYDPDWGQGTQVTVSS
5. M032 (VHH) VHH: EVQLVESGGGSVQAGGSLKISCAASGSVIDIGAMGWYRHITEKERKLVATINAGGNTYYADSVKGRFTISRDNAKYTVYLQMNSLKPEDTAMYYCAAEDINYTGTEAYYWGQGTQVTVSS

A.
[0.0082, 0.0184, 0.0072, 0.0083, 0.0076]
